Values compiled from BigSolDB 2.1.

# CONDITION_LABEL: in ethanol, 298.15 K
EXPERIMENTAL_READOUT: solubility (mole fraction)
Give the figure by itself; no unit, no explanation.

Documented solubility (mole fraction) of Clc1ccc(COC(Cn2ccnc2)c2ccc(Cl)cc2Cl)cc1.O=[N+]([O-])O (stereo unspecified) : 0.00125

* * *

# CONDITION_LABEL: in water, 278.15 K
EXPERIMENTAL_READOUT: solubility (mole fraction)
Give the figure by itself; no unit, no explanation.

Documented solubility (mole fraction) of Clc1ccc(COC(Cn2ccnc2)c2ccc(Cl)cc2Cl)cc1.O=[N+]([O-])O (stereo unspecified) : 1.67e-05

* * *

# CONDITION_LABEL: in water, 313.15 K
EXPERIMENTAL_READOUT: solubility (mole fraction)

Documented solubility (mole fraction) of Clc1ccc(COC(Cn2ccnc2)c2ccc(Cl)cc2Cl)cc1.O=[N+]([O-])O (stereo unspecified) : 5.16e-05

* * *

# CONDITION_LABEL: in methanol, 298.15 K
EXPERIMENTAL_READOUT: solubility (mole fraction)
Give the figure by itself; no unit, no explanation.

Documented solubility (mole fraction) of Clc1ccc(COC(Cn2ccnc2)c2ccc(Cl)cc2Cl)cc1.O=[N+]([O-])O (stereo unspecified) : 0.00328

* * *

# CONDITION_LABEL: in methanol, 313.15 K
EXPERIMENTAL_READOUT: solubility (mole fraction)
Give the figure by itself; no unit, no explanation.

Documented solubility (mole fraction) of Clc1ccc(COC(Cn2ccnc2)c2ccc(Cl)cc2Cl)cc1.O=[N+]([O-])O (stereo unspecified) : 0.00577
